Origin of values: patent US5500430A

assay: Acute intravenous toxicity in rats (LD50); settings: rat, in vivo
result-type: selectivity ratio

Quick check: selectivity ratio of O=C(O)CC[C@@H](NC(=O)c1cc(Cl)cc(Cl)c1)C(=O)N1CCC2(CCCC2)CC1 ?
~25

* * *

molecular target: gastrin receptor sites on the cerebral cortex membranes of mice (Mus musculus, UniProt P56481); construct: Mouse cortical tissue; from tissue; host or cells: mouse cerebral cortex membranes; assay: Inhibition of the binding of pentagastrin to mouse cortical membranes; settings: pentagastrin tritiate ligand, 40 minutes at 37° C.; read-out: IC50, inhibition of the binding of pentagastrin
Sequence (P56481 whole entry): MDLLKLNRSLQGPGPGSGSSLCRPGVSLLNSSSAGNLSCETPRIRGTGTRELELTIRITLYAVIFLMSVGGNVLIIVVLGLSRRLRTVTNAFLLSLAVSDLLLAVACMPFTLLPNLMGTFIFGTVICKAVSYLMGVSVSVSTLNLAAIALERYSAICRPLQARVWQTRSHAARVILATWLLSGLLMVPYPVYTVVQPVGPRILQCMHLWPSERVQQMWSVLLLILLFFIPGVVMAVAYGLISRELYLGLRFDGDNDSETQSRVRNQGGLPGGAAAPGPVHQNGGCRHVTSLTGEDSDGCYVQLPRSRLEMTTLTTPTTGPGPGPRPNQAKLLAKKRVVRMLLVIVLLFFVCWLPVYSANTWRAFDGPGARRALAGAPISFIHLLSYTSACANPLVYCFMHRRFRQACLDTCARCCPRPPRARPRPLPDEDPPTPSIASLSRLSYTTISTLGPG
pIC50: −log10 of the molar value.
Outcome: Fulfilled for pIC50 of at least 6; Not fulfilled for anything lower.

Determine whether this compound has pIC50 no lower than 6: O=C(O)CC[C@@H](NC(=O)c1cccc([N+](=O)[O-])c1)C(=O)N1CCC2(CCCC2)CC1 [Compound C14]
Not fulfilled

Input O=C(O)CC[C@@H](NC(=O)c1cccc(Cl)c1)C(=O)N1CCC2(CCCC2)CC1 [Compound C1]
Fulfilled

Check O=C(O)CC[C@@H](NC(=O)c1cc(Cl)cc(Cl)c1)C(=O)NC1CCC2(CCCCC2)CC1 [Compound C23] too.
Fulfilled

Same read-out for O=C(O)CC(NC(=O)c1cccc(Cl)c1)C(=O)N1CCC2(CCCC2)CC1 (centres unmarked) [Compound D4] ?
Not fulfilled

And the next one, O=C(O)CCC(NC(=O)c1cccc(Cl)c1)C(=O)N1CCC2(CC1)SCCS2 (racemic) [Compound D1] ?
Not fulfilled

// next record O=C(O)CC[C@@H](NC(=O)c1ccc2ccccc2c1)C(=O)N1CCC2(CCCC2)CC1 [Compound C10]
Fulfilled

Can you check O=C(O)CC[C@@H](NC(=O)c1cccc(Cl)c1)C(=O)NCCC12CC3CC(CC(C3)C1)C2 [Compound C30] next?
Fulfilled

Query O=C(O)CC[C@@H](NC(=O)c1cccc(Cl)c1)C(=O)N1CCC2(CCCCC2)CC1 [Compound C2] next
Fulfilled

Please answer likewise for O=C(O)CC[C@@H](NC(=O)c1cnc2ccccc2c1)C(=O)N1CCC2(CCCCC2)CC1 [Compound C21]
Fulfilled

Also O=C(O)CC[C@@H](NC(=O)c1cc(Cl)cc(Cl)c1)C(=O)N1CCC2(CCCC2)CC1 [Compound C5] ?
Fulfilled

Same again, this time with O=C(O)CC[C@@H](NC(=O)c1cc(Cl)cc(Cl)c1)C(=O)N1CCC2(CCCCC2)C1 [Compound C6]
Fulfilled

Here is the next compound: O=C(O)CC[C@H](NC(=O)c1cccc(Cl)c1)C(=O)N1CCC2(CCCC2)CC1 [Compound C32]
Not fulfilled
